Hello, the source for this data is patent US20210079074A1, in case you need it.

molecular target: human MS4A4A (human, UniProt Q96JQ5 1-239); experiment: FACS, U937-huMS4A4A, 5 ug/ml
Property name: MFI

Binder	Meas value
anti-MS4A4A antibody 4A-338 (antibody, human IgG1, V domains shown, humanized 4A-21; human IgG1/kappa) VH: QVQLVQSGSELKKPGASVKVSCKASGYIFTSYGLSWVRQAPGQGLEWMGWINTYSGVPTYAQGFTGRFVFSLDTSVSTTYLQISSLKAEDTAVYYCARSLVDYWGQGTLVTVSS VL: DVVMTQTPLSSPVTLGQPASISCKSSQSLLYSDGKTYLSWLQQRPGQPPRLLIYLVSKLDSGVPDRFSGSGAGTDFTLKISRVEAEDVGVYYCWQGIDFHQTFGGGTKVEIK	222
anti-MS4A4A antibody 4A-304 (antibody, human IgG1, V domains shown, human IgG1/kappa) VH: QVQLVQSGAEVKKPGASVKVSCKASGYTFTNYWMQWVRQAPGQGLEWMGATHPGHGDTRYAQKFQGRVTMTRDTSTSTVYMELSSLRSEDTAVYYCAREEVYYGFRSYWYFDVWGRGTLVTVSS VL: EIVLTQSPGTLSLSPGERATLSCRASESVDNYGVSFMNWYQQKPGQAPRLLIYGASNQGSGIPDRFSGSGSGTDFTLTISRLEPEDFAVYYCQQSKEVPPTFGGGTKVEIK	112
